Reference for the values: patent US20230287120A1

Molecular target: T1, human DLL3 extracellular domain (ECD) with C-terminal 8xHis tag and Avi tag (human, UniProt Q9NYJ7 27-492)
T1 construct: extracellular domain; Expressed in Expi293, purified by IMAC and SEC; also called huDLL3; not shown: Avi tag
T1 sequence: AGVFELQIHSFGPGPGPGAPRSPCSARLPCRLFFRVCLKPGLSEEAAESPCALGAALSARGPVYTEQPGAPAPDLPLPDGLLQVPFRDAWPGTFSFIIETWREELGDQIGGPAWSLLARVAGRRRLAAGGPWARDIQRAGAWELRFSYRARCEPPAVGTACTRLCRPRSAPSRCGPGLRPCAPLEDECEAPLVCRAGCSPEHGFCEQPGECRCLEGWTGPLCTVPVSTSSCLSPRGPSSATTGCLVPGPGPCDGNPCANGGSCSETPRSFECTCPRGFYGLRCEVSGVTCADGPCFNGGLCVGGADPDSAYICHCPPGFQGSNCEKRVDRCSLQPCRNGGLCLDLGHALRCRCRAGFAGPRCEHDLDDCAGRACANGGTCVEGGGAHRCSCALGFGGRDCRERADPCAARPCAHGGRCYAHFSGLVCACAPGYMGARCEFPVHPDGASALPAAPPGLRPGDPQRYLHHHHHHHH
Assay: SPR (Biacore), 37 C; scFv-Fc captured on chip, human DLL3 ECD in solution; 1:1 Langmuir fit
Here, each record is paired with measured Kd data.
experimentalReadout: Kd (nM)

>>> measurement("8E11 scFv-Fc fusion (Fc fusion, not shown: a dimerising Fc or GST, scFv-Fc expressed in Expi293) scFv: QVQLQESGPGLVKPSETLSLTCTVSGDSISNYYWTWIRQPPGKGLEWIGYIYYSGTTNSNPSLKSRVTVSLDTSKSQFSLNLSSVTAADTAVYYCARVFNRGFAFDIWGQGTMVTVSSGGGGSGGGGSGGGGSGGGGSEIVLTQSPGTLSLSPGERATLSCRASQRISNTYLAWYQQKPGQAPRLLIYGASSRATGIPDRFSGSGSGTDFTLTISRLEPEDFAAYYCQQYDTSPLTFGGGTKVEIK")
11.2
>>> measurement("4H8 scFv-Fc fusion (Fc fusion, not shown: a dimerising Fc or GST, scFv-Fc expressed in Expi293) scFv: QVQLQQSGPGLVKPSQTLSLTCAISGDSVSSNSATWNWIRQSPSRGLEWLGRTYYRSKWYDDYAVSVKSRITINPDTSKNHLSLHLNSVTPEDTAVYYCAGGGLVGAPDGFDVWGQGTMVTVSSGGGGSGGGGSGGGGSGGGGSQSVLTQPPSASGTPGQRVTISCSGSSSNIGSDPVNWYQQLPGTAPKLLIYSNNQRPSGVPDRFSGSKSGTSASLAISGLQSEDEADYYCSAWDDSLNGYVFGTGTKVTVL")
23.3
>>> measurement("9H12-K scFv-Fc fusion (Fc fusion, not shown: a dimerising Fc or GST, scFv-Fc expressed in Expi293) scFv: QVQLVQSGAEVKKPGASVKVSCKASGYTFTGYSIHWVRQAPGQGLEWMGWINPNSGGTFYAQKFQGRVTMTRDTSISTVYMELSRLRSDDTAVYYCARDGWGDYYYYGLDVWGQGTTVTVSLGGGGSGGGGSGGGGSGGGGSDIQMTQSPSSVSASVGDRVTITCRASQDISSWLAWYQQKPGKAPKLLIYTASSLQGGVPSRFSGSGSGTDFTLTISSLQPEDLATYSCQQANVFPYTFGQGTKLEIK")
186
